- TGT: HLA-A*30:01
- TEST_SUMMARY: IEDB peptide-MHC binding, purified MHC/direct/fluorescence; filed as Kd, often an IC50 or EC50 that approximates it; bounds were set here for any values at or beyond the usual limits of such assays
- RUN_PARAMETERS: source organism: Brucella melitensis
PARAMETER: Kd (nM)
State just the number; it will be interpreted in nM.

Kd for RLWNGRRCR ?
1750

---

- TGT: HLA-A*02:16
- TEST_SUMMARY: IEDB peptide-MHC binding, purified MHC/direct/fluorescence; filed as Kd, often an IC50 or EC50 that approximates it; bounds were set here for any values at or beyond the usual limits of such assays
- RUN_PARAMETERS: source organism: Zaire ebolavirus
PARAMETER: Kd

Solved entries:
Which Kd is listed for AENCYNLEI ?
≥ 20 µM

Give the measured Kd of GIVSSMHYK .
≥ 20 µM

Here's the next entry for you.
Which Kd value is on record for DRLASTVIY ?
≥ 20 µM

Hello, the source for this data is the Immune Epitope Database (IEDB), in case you need it.
